The origin of these recorded values is PubChem BioAssay (NCI).

Test system: RPMI-8226 leukemia
assay explanation: NCI tumour cell line growth inhibition, 48 h
Where a SMILES comes first, the peptide text is derived from it. [ ]: non-standard residue; d: D form. The star is where a group is joined. mTyr = N[CH](Cc1cccc(O)c1)C(=O)O; Cbz = O=C(OCc1ccccc1)*; OBn = c1ccc(CO*)cc1
Reported TGI values for a set of molecules
value type: TGI

- molecule: "O=c1onc2c3ccccc3ncn12"
  value type: "TGI"
  measured: "> 100 µM"
- molecule: "COc1ccc(-n2cnc3c(NC(CCSC)C(=O)O)ncnc32)cc1 (stereo not drawn)"
  value type: "TGI"
  measured: "> 100 µM"
- molecule: "O=C1NC(=O)C(c2cccc(Cl)c2)=C1Nc1ccc(O)c(Cl)c1"
  value type: "TGI"
  measured: "> 25 µM"
- molecule: "c1ccc(CSCCc2ccncc2)cc1"
  value type: "TGI"
  measured: "> 100 µM"
- molecule: "COc1ccc(OC)c(Cn2cc3c(c2)-c2oncc2CC3)c1"
  value type: "TGI"
  measured: "> 27.9 µM"
- molecule: "CC(NC(C)(C)C)C(=O)c1cccc(Cl)c1 (stereo not drawn)"
  value type: "TGI"
  measured: "> 100 µM"
- molecule: "COC(=O)C(Cc1cccc(O)c1)NC(=O)C(CC(=O)OCc1ccccc1)NC(=O)OCc1ccccc1 (stereo not drawn) (Cbz-Asp(OBn)-[mTyr]-OMe; configuration not given here)"
  value type: "TGI"
  measured: "> 100 µM"
- molecule: "COc1ccc2oc(=N)c(C(=O)Nc3ccccn3)cc2c1"
  value type: "TGI"
  measured: "> 100 µM"
- molecule: "CCC1(COC(NC(=O)c2ccccc2)(C(F)(F)F)C(F)(F)F)COC1"
  value type: "TGI"
  measured: "> 100 µM"
- molecule: "Cc1ccc(/C(O)=C/C(=O)C(=O)NN=C(c2ccccc2)c2ccccc2)cc1"
  value type: "TGI"
  measured: "> 100 µM"
- molecule: "O=C(O)CNC(=O)c1c2ccccc2nc2ccccc12"
  value type: "TGI"
  measured: "> 100 µM"
- molecule: "COc1ccc2cc(-c3c(-c4ccncc4)nc(-c4ccc(S(C)=O)cc4)n3C)ccc2c1 (stereo not drawn)"
  value type: "TGI"
  measured: "> 25 µM"
- molecule: "Cc1ccc(S(=O)OC2C3CC4CC(C3)CC2C4)cc1 (stereo not drawn)"
  value type: "TGI"
  measured: "> 100 µM"
